Test system: Trichoderma virens ATCC 9645
Test: growth yield (OD600) with compound + IPBC relative to untreated control; higher = less growth inhibition
Conditions: compound concentration: 100 uM; IPBC concentration: 200 ng/ml; 40 h
Where a name gives a salt, the structure may show the parent alone. In all, about 1,300 compounds went through this assay and about 130 (10%) showed an effect of 50% or more. The full list was thinned out, with strong results kept by preference.
VALUE_TYPE: growth yield (%)
One number for each entry, in %.

| MOLECULE | growth yield [%] |
| --- | --- |
| Cc1cc(CC(=O)O)n(C)c1C(=O)c1ccc(Cl)cc1 [Zomepirac sodium salt] + CCCCNC(=O)OCC#CI [3-iodo-2-propynyl butylcarbamate (IPBC)] | 89.6 |
| CC1CS(=O)(=O)CCN1/N=C/c1ccc([N+](=O)[O-])o1 (stereo not drawn) [Nifurtimox] + CCCCNC(=O)OCC#CI [3-iodo-2-propynyl butylcarbamate (IPBC)] | 91.5 |

Tell me growth yield reported for O=c1[nH]c(=O)n([C@H]2C[C@H](O)[C@@H](CO)O2)cc1I [Idoxuridine] + CCCCNC(=O)OCC#CI [3-iodo-2-propynyl butylcarbamate (IPBC)]
87.8

====

For each entry below, report its growth yield value.
System: Trichoderma virens ATCC 9645
Assay: growth yield (OD600) with compound + IPBC relative to untreated control; higher = less growth inhibition
Conditions: compound concentration: 100 uM; IPBC concentration: 200 ng/ml; 40 h
Counter-ions that a name gives are not always drawn. The whole screen tested about 1,300 compounds, of which about 130 (10%) showed an effect of 50% or more. This is one part of a sample in which strong results are shown more often than they occur.
One number for each entry, in %.

Use these answered entries as a reference point.
| COMPOUND | growth yield / % |
| --- | --- |
| Cc1cccc(C)c1NC(=O)C1CCCCN1C (stereo unspecified) [Mepivacaine hydrochloride] + CCCCNC(=O)OCC#CI [3-iodo-2-propynyl butylcarbamate (IPBC)] | 91.3 |
| CC(=O)N[C@@H](CC(C)C)C(=O)O [N-Acetyl-L-leucine] + CCCCNC(=O)OCC#CI [3-iodo-2-propynyl butylcarbamate (IPBC)] | 86.6 |
| CN(C)C(=N)NC(=N)N [Metformin hydrochloride] + CCCCNC(=O)OCC#CI [3-iodo-2-propynyl butylcarbamate (IPBC)] | 85.9 |

State recorded growth yield for all listed compounds.
1. Cc1cccc(N(C)C(=S)Oc2ccc3ccccc3c2)c1 [Tolnaftate] + CCCCNC(=O)OCC#CI [3-iodo-2-propynyl butylcarbamate (IPBC)]
2. COC(=O)C1=C(C)NC(C)=C(C(=O)OC)C1c1ccccc1[N+](=O)[O-] [Nifedipine] + CCCCNC(=O)OCC#CI [3-iodo-2-propynyl butylcarbamate (IPBC)]
3. CCOC(=O)C1=C(C)NC(C)=C(C(=O)OC)C1c1cccc([N+](=O)[O-])c1 (stereo unspecified) [Nitrendipine] + CCCCNC(=O)OCC#CI [3-iodo-2-propynyl butylcarbamate (IPBC)]

1: 0; 2: 42.4; 3: 79.6

====

Test system: Trichoderma virens ATCC 9645
Assay: growth yield (OD600) with compound + IPBC relative to untreated control; higher = less growth inhibition
Conditions: compound concentration: 100 uM; IPBC concentration: 200 ng/ml; 72 h
Structures can show the parent of a compound that is named as a salt. Hit rate of the full screen: of about 1,300 compounds, about 130 (10%) showed an effect of 50% or more. This excerpt belongs to a sample that is enriched for strong results.
For each entry below, report its growth yield value.
Give bare numbers, in %.

Use these answered entries as a reference point.
| MOLECULE | SCALE_UNIT | growth yield |
| --- | --- | --- |
| CCOC1O[C@H]([C@@H](COCc2ccccc2)OCc2ccccc2)[C@H](OCc2ccccc2)[C@H]1O (stereo not given in full) [Tribenoside] + CCCCNC(=O)OCC#CI [3-iodo-2-propynyl butylcarbamate (IPBC)] | % | 88.1 |
| CC(NCCc1ccc(O)cc1)C(O)c1ccc(O)cc1 (stereo not given) [Ritodrine hydrochloride] + CCCCNC(=O)OCC#CI [3-iodo-2-propynyl butylcarbamate (IPBC)] | % | 92.4 |
| CN1CCN(C(c2ccccc2)c2ccccc2)CC1 [Cyclizine hydrochloride] + CCCCNC(=O)OCC#CI [3-iodo-2-propynyl butylcarbamate (IPBC)] | % | 87.6 |

State recorded growth yield for all listed molecules.
1. CC[C@]12CCCN3CCc4c(n(c5ccccc45)[C@@](O)(C(=O)OC)C1)[C@@H]32 [Vincamine] + CCCCNC(=O)OCC#CI [3-iodo-2-propynyl butylcarbamate (IPBC)]
2. COc1ccc([C@@H]2CC(=O)c3c(O)cc(O[C@@H]4O[C@H](CO[C@@H]5O[C@@H](C)[C@H](O)[C@@H](O)[C@H]5O)[C@@H](O)[C@H](O)[C@H]4O)cc3O2)cc1O [Hesperidin] + CCCCNC(=O)OCC#CI [3-iodo-2-propynyl butylcarbamate (IPBC)]

[91, 92.6]
